assaySummary: Cmax in mouse at 2 mg/kg, iv
Format: ADME, organism-based
condition: in vivo
Listing: Cmax of selected compounds
Return type: number; implicit unit ng/mL.

# example entries with known answers
{"compound": "CCN(c1cc(-c2ccc(CN3CCOCC3)cc2)cc(C(=O)NCc2c(C)cc(C)[nH]c2=O)c1C)C1CCOCC1", "Cmax [ng/mL]": 2010}
{"compound": "CCN(c1cc(-c2ccc3c(c2)CCC3N2CCOCC2)cc(C(=O)NCc2c(C)cc(C)[nH]c2=O)c1C)C1CCOCC1 (centres undefined)", "Cmax [ng/mL]": 2400}
{"compound": "CCN(c1cc(-c2ccc3c(c2)NC(=O)C32CCN(C)CC2)cc(C(=O)NCc2c(C)cc(C)[nH]c2=O)c1C)C1CCOCC1", "Cmax [ng/mL]": 3680}

Note: attention shifts to another entry.
Kindly note the recorded Cmax for `CCN(c1cc(-c2ccc3c(c2)N(C)CC32CCOCC2)cc(C(=O)NCc2c(C)cc(C)[nH]c2=O)c1C)C1CCOCC1` , which is 2790
